Where these numbers come from: ChEMBL document CHEMBL1201862

Tested On: Carboxy-terminal domain RNA polymerase II polypeptide A small phosphatase 1 (Homo sapiens, UniProt Q9GZU7)
Sequence (Q9GZU7 whole entry, the tested form may be a part): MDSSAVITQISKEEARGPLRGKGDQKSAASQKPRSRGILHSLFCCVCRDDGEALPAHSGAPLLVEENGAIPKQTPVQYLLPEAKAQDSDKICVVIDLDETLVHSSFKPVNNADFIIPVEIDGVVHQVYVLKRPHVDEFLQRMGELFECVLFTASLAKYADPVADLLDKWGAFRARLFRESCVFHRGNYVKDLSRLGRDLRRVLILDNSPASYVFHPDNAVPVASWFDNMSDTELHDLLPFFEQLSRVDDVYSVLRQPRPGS
Experiment Description: inhibitors of CTDSP1, concentration-response testing, biochemical assay, absorbance-based, actives from ultra-high-throughput screening (AID 540297)
Type: functional
Active and inactive are the calls of the source.
Measured Endpoint: IC50

> print(dat)
                              sample.smiles               val
1  O=C(Oc1ccc(/C=N/NC(=O)c2ccccc2O)cc1)c1ccccc1  8.03 µM (active)
2  O=C(CN1C(=O)/C(=C2/SC(=S)N(CCS(=O)(=O)O)C2=O)c2ccccc21)Nc1cccc(Br)c1  3.22 µM (active)
3  O=C(Cc1cccs1)Nc1ccc(S(=O)(=O)N2CCCC2)cc1  5.04 µM (active)

Next, consider the following compound.
Param item = NC(=O)Cc1ccc(C(=O)CSc2nnc(-c3ccncc3)n2C2CC2)s1 ; retrieve measured IC50.
4.44 µM (active)

---

Calls of active or inactive are those of the source.
Listed here: compounds with reported IC50 for Estrogen receptor (Homo sapiens).

These solved cases illustrate the format of a correct answer.
> print(dat)
                              sample.smiles  measured.endpoint                   val
1     Cc1ccc(Nc2nnc(SCC(=O)NCc3ccco3)s2)cc1               IC50      28.8 µM (active)
2  CCc1ccc2[nH]c(=O)c(CN(Cc3ccc4c(c3)OCO4)C(=O)c3ccco3)cc2c1               IC50      26.2 µM (active)
3                  CC(=O)NCCOC(=O)Nc1ccncc1               IC50  > 50 µM (not active)
4    COc1ccccc1/C=c1\sc2nc(-c3ccco3)nn2c1=O               IC50      17.5 µM (active)

Next, consider the following compound.
GET /values?readout=IC50&system=Estrogen receptor (Homo sapiens)&item= C=CCOc1ccc(CC2C(=O)N(C)C(=O)N(C)C2=O)cc1;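 further: potency for inhibiting coactivator peptide recruitment to the receptor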
> 50 µM (not active)

---

Tested On: Kappa-type opioid receptor (Homo sapiens)
Sequence (P41145 whole entry): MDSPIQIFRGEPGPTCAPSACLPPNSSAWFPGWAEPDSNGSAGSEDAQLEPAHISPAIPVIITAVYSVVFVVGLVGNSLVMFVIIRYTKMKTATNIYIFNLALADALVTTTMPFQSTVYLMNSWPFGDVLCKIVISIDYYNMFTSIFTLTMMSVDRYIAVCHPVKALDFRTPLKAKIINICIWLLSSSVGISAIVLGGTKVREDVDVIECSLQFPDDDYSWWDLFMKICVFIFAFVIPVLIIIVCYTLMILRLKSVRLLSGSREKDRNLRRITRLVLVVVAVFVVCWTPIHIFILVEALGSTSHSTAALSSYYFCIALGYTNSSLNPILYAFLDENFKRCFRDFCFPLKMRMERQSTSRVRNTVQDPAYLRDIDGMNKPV
Type: functional
pIC50: −log10 of the molar value.
Measured Endpoint: pIC50

Param item = CCCCC/C(=N/O)c1c(C)[nH]c2ccccc12 ; retrieve measured pIC50.
< 4.49

---

Experiment Description: cytotoxicity toward NIH3T3 fibroblasts, dose response, counter-screen, cell-based, ATP luminescence, mouse fibroblasts (AID 2010);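 further: cells exposed to compound for about 90 hours before reading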
Type: functional
The source made the active and inactive calls.
Measured Endpoint: EC50

These solved cases illustrate the format of a correct answer.
> print(dat)
                                   compound  measured.endpoint                   val
1  C/C(=N/NC(=S)Nc1cccc(C)c1)c1cccc([N+](=O)[O-])c1               EC50  > 60 µM (not active)
2  Cc1ccc(NC(=S)N/N=C/c2ccc([N+](=O)[O-])s2)cc1               EC50      7.86 µM (active)
3  C/C(Cl)=C\Cn1c(O)c(/N=N/C(=N)S)c2ccccc21               EC50  > 30 µM (not active)
4  CC(C)(C)c1ccc(Cn2c(=N)n(CC(O)c3ccco3)c3ccccc32)cc1 (stereo not drawn)               EC50  > 60 µM (not active)

Hi there! I need EC50 for each item below, if you can.
1. O=C(/C=C/c1ccccc1)NC(NC(=S)Nc1cc(Cl)ccc1Cl)C(Cl)(Cl)Cl (stereo not drawn)
2. Cc1nn(C(C)C)c(C)c1CN1CCCC(CCC(=O)NCc2ccccc2F)C1 (stereo not drawn)
3. Cc1nnc(-c2ccccc2)c(=O)n1/N=C/c1c(O)ccc2ccccc12
4. CS(=O)(=O)c1nc(-c2ccccc2)cc(C(F)(F)F)n1

1. > 60 µM (not active)
2. > 60 µM (not active)
3. 1.97 µM (active)
4. 2.55 µM (active)

---

Tested On: RNA-binding protein pos-1 (Caenorhabditis elegans)
Sequence (G5EF15 whole entry, the tested form may be a part): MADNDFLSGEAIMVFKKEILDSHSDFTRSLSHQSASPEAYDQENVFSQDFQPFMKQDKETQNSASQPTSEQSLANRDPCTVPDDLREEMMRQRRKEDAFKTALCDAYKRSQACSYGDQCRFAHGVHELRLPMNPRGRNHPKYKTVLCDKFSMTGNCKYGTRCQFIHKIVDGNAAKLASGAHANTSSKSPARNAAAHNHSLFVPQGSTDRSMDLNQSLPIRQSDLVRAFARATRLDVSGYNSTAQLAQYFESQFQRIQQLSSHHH
Experiment Description: inhibitors of POS-1/mex-3 RNA binding, dose response, biochemical, fluorescence polarization (AID 1964);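 further: purified POS-1 fused to maltose binding protein made in E. coli; potency of compounds blocking POS-1 binding to fluorescent RNA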
Activity calls are given as the source filed them.
Measured Endpoint: EC50

These solved cases illustrate the format of a correct answer.
> print(dat)
                                   compound                                 tested.on  measured.endpoint                    val
1  CCCCN1C(=O)/C(=C/C=C2\Oc3ccccc3N2CC)SC1=S  RNA-binding protein pos-1 (Caenorhabditis elegans)               EC50       48.2 µM (active)
2  NC(=O)c1c(NC(=O)c2ccccc2)sc2c1CCN(Cc1ccccc1)C2  RNA-binding protein pos-1 (Caenorhabditis elegans)               EC50  > 300 µM (not active)
3  CCCCN1C(=O)NC(=O)/C(=C(O)\C=C\c2ccc3c(c2)OCO3)C1=O  RNA-binding protein pos-1 (Caenorhabditis elegans)               EC50       11.5 µM (active)

Hi there! I need EC50 for each item below, if you can.
1. O=C1C2=C(SCCS2)C(=O)N1c1ccccc1
2. Cc1[n-][o+]nc1OCCNCCNc1ccc([N+](=O)[O-])c2cccnc12
3. COCCCNC(=O)CCC(=O)NNc1nc2ccccc2c2nc(C)nn12
4. O=C(O)c1cccc(-n2cccc2/C=C\[N+](=O)[O-])c1

1. > 300 µM (not active)
2. 120 µM (active)
3. > 300 µM (not active)
4. 83.7 µM (active)

Hi there! I need EC50 for each item below, if you can.
1. CO[C@H]1O[C@H](CBr)[C@@H](OC(=O)c2ccccc2)[C@H](O)[C@H]1O
2. CCOc1cc(/C=C2\C(=O)NC(=O)N(CCc3ccc(F)cc3)C2=O)ccc1O
3. O=C(NCc1cccs1)C1CCN(S(=O)(=O)c2ccc(Br)s2)CC1
4. O=C(Cc1nc2ccccc2nc1O)c1ccccc1
5. Oc1[nH]c2ccccc2c1N=Nc1cccc(Cl)c1

1. > 300 µM (not active)
2. > 300 µM (not active)
3. > 300 µM (not active)
4. 42.5 µM (inconclusive)
5. 125 µM (active)

GET /values?readout=EC50&system=RNA-binding protein pos-1 (Caenorhabditis elegans)&item= CC1=CC(C)(C)N2C(=O)C3(C(C#N)=C(N)OC4=C3C(=O)CC(C)(C)C4)c3cc(C)cc1c32 (stereo not drawn)
> 300 µM (not active)

---

Experiment Description: NIH:OVCAR-3 ovarian cancer cell cytotoxicity, dose response, PAX8 inhibitor project, plate reader, dry powder samples (AID 743044)
Type: functional, cell-based
Calls of active or inactive are those of the source.
Measured Endpoint: AC50

> print(dat)
                              sample.smiles               val
1  COc1ccc(C)cc1NS(=O)(=O)c1ccc(-c2cnc(C3CC3)o2)cc1  1.77 µM (active)
2  C[C@H]1CCCCO[C@H](CN(C)S(=O)(=O)c2ccc(F)cc2)[C@@H](C)CN([C@@H](C)CO)C(=O)c2cc(NS(=O)(=O)c3ccc(Cl)cc3)ccc2O1  49.2 µM (active)
3  CC(C)NC(=O)N(C)C[C@H]1OCCCC[C@@H](C)Oc2ccc(NC(=O)Nc3ccc(C(F)(F)F)cc3)cc2C(=O)N([C@@H](C)CO)C[C@H]1C  32.7 µM (active)

Param item = C[C@@H]1CCCCO[C@@H](CN(C)Cc2ccc(C(F)(F)F)cc2)[C@H](C)CN([C@@H](C)CO)C(=O)c2cc(NC(=O)NC3CCCCC3)ccc2O1 ; retrieve measured AC50.
45.2 µM (active)

---

Tested On: Large T antigen (Simian virus 40);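 further: Confirmatory-stage PubChem screen for compounds that inhibit SV40 T antigen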
Sequence (P03070 whole entry): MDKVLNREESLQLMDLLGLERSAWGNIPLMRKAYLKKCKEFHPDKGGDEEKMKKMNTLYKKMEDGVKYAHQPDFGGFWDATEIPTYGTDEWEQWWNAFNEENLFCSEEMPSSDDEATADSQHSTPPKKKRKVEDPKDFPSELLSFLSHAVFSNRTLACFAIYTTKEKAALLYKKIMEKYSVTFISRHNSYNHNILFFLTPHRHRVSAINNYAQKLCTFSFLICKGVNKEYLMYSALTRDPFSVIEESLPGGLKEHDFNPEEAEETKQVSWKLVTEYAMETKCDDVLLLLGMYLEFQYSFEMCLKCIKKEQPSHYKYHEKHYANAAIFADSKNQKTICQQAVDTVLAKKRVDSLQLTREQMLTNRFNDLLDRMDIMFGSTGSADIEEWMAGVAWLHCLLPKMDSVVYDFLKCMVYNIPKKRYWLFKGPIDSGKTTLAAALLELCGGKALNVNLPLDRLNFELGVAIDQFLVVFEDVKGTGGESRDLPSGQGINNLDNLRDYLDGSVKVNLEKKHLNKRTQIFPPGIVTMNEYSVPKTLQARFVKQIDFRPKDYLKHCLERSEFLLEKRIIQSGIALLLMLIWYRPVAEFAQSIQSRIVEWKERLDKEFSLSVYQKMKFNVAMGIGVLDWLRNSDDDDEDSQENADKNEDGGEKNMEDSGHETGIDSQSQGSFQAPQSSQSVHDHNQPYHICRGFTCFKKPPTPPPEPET
Type: functional, Betapolyomavirus macacae
Active and inactive are the calls of the source.
Measured Endpoint: IC50

These solved cases illustrate the format of a correct answer.
> print(dat)
                                   compound  measured.endpoint               val
1  CCOc1ccc(NCc2cccn2-c2nnc(N3CCC(C(=O)NCCCN4CCCCC4CC)CC3)s2)cc1 (stereo unspecified)               IC50  11.7 µM (active)
2  CCCCCCCCCCCCCCCC[N+](C)(C)CCN(Cc1ccc(OC)cc1)c1ncccn1 [THONZONIUM BROMIDE]               IC50  15.4 µM (active)
3  COc1cc(/C=N/NC(=O)c2cc(C3CC3)[nH]n2)ccc1O               IC50  7.28 µM (active)
4  COc1cc(/C=N/NC(=O)c2cccc(S(=O)(=O)N3CCCC3)c2)ccc1O               IC50  9.24 µM (active)
5  COc1cc(/C=C2\C(=N)N3N=C(CC(=O)N4CCCCC4)SC3=NC2=O)ccc1O               IC50  22.5 µM (active)

Hi there! I need IC50 for each item below, if you can.
1. COc1cc(/C=C2\SC(Nc3ccc(Cl)c(C(=O)O)c3)=NC2=O)c(Br)c(Br)c1O
2. O=C1CCCN1CCCNC(=S)Nc1ccc(Nc2ccccc2)cc1
3. CCN(CC)c1ccc(NC(=O)COC(=O)c2ccc3ccccc3n2)cc1
4. CC/N=c1\scc(C)n1/N=C/c1cc(Br)c(O)c(Br)c1
5. COc1ccc(C2CC(=O)C(C(c3ccc(O)cc3)C3C(=O)CC(c4ccc(OC)cc4)CC3=O)C(=O)C2)cc1 (stereo unspecified)
6. CC(C)C1Cc2c(sc3c2c(=O)n(-c2ccccc2)c2n[nH]c(=S)n32)CO1 (stereo unspecified)

["3.27 µM (active)", "18.7 µM (active)", "48.2 µM (active)", "21.6 µM (active)", "37.3 µM (active)", "29.5 µM (active)"]
